Parameter: IC50. Scope: all listed entries.
Biological target: V600EBRAF
Experiment: DELFIA kinase assay (BRAF V600E Kinase Assay)
Details: 100 μM ATP
# number only, unit nM dropped from output

Per the record, Cn1c(=O)[nH]c2nccc(Oc3ccc(NC(=O)Nc4cc(C(C)(C)C)nn4-c4cccc(F)c4)c(F)c3)c21 [AA-04, reference compound] has IC50 of 650

Per the record, Cc1ccc(-n2nc(C(C)(C)C)cc2NC(=O)Nc2ccc(Oc3ccnc4[nH]c(=O)cnc34)cc2F)cc1 [AA-018, reference compound] has IC50 of 64

Per the record, "Cc1cccc(-n2nc(C(C)(C)C)cc2NC(=O)Nc2ccc(Oc3ccnc4[nH]c(=O)cnc34)cc2F)c1" has IC50 of 99

---

System: mutant BRAF WM266.4 cells
Assay: Cell based phospho-ERK assay
Conditions: Homo sapiens, WM 266-4, 6 h, read-out: Cell-Based Phospho-ERK Assay IC50
Measure: pIC50
Give only the number. pIC50 is defined as minus log10 of concentration in molar units.

Per the record, "CC(C)(C)c1cc(NC(=O)Nc2ccc(Oc3ccnc4[nH]c(=O)cnc34)cc2F)n(-c2ccnc(O)c2)n1" has pIC50 of 6.35

---

Target: EGFR
Assay: Z'-LYTE biochemical kinase assay
Conditions: ATP 100 μM
Measure: pIC50
Give only the number. pIC50 is defined as minus log10 of concentration in molar units.

Per the record, CC(C)(C)c1cc(NC(=O)Nc2ccc(Oc3ccnc4[nH]c(=O)cnc34)cc2F)n(-c2cccc(F)c2)n1 [TBAP-01] has pIC50 of 5.72

---

Target: KDR
Assay: Z'-LYTE biochemical kinase assay
Settings: ATP 100 μM
Measure: IC50 (nM)
# number only, unit nM dropped from output

Per the record, "CC(C)(C)c1cc(NC(=O)Nc2ccc(Oc3ccnc4[nH]c(=O)cnc34)cc2F)n(-c2cccc(F)c2)n1" has IC50 of 120

---

Target: PDGFRβ
Assay: Z'-LYTE biochemical kinase assay
Settings: ATP 100 μM
Measure: IC50 (nM)
# number only, unit nM dropped from output

Reading of IC50 for "CC(C)(C)c1cc(NC(=O)Nc2ccc(Oc3ccnc4[nH]c(=O)cnc34)cc2F)n(-c2cccc(F)c2)n1" with PDGFRβ: 740

---

Biological target: MET
Test: Z'-LYTE biochemical kinase assay
Conditions: ATP 100 μM
Measure: pIC50
Give only the number. pIC50 is defined as minus log10 of concentration in molar units.

Reading of pIC50 for "CC(C)(C)c1cc(NC(=O)Nc2ccc(Oc3ccnc4[nH]c(=O)cnc34)cc2F)n(-c2cccc(F)c2)n1" with MET: 5.85

---

Biological target: p38α
Assay: Z'-LYTE biochemical kinase assay
Details: ATP 100 μM
Procedure: Activity Against Other Targets Studies were conducted at Life Technologies in Paisley according to the contractor's protocol. […] IC50 values for test compounds were determined using the Z'-LYTE® biochemical assay employing a fluorescence-based, coupled-enzyme format based on the differential sensitivity of phosphorylated and non-phosphorylated peptides to proteolytic cleavage.
Measure: pIC50
Give only the number. pIC50 is defined as minus log10 of concentration in molar units.

Per the record, CC(C)(C)c1cc(NC(=O)Nc2ccc(Oc3ccnc4[nH]c(=O)cnc34)cc2F)n(-c2cccc(F)c2)n1 [TBAP-01] has pIC50 of 6.33

# credit: patent US10167282B2
